// provenance: paper PMC8359396

test_method_notes: In vivo pharmacokinetics and brain penetration
setup_conditions: male, C57BL/6NCrl, mouse, in vivo, 50 mg/kg, F (oral bioavailability), mice; single p.o. 50 mg∙kg^−1 compared with i.v. 10 mg∙kg^−1
attribute_measured: bioavailability (%)
Dear colleague, please return just the value in %, with no unit written.

// Fc1ccc2c(/C=C/c3nnn[nH]3)c[nH]c2c1 [LM10, reference compound] : bioavailability value = 63

###

test_method_notes: In vivo pharmacokinetics and brain penetration
setup_conditions: male, C57BL/6NCrl, mouse, in vivo, 100 mg/kg, F (oral bioavailability), mice; single p.o. 100 mg∙kg^−1 compared with single i.v. 10 mg∙kg^−1
attribute_measured: bioavailability
Put down the number, then write its unit next to it.

// C[C@@H](CO)NC(=O)c1ccc(-c2c[nH]c3cc(F)ccc23)cc1 : bioavailability value = 22%
